Tested on: A549
MEASUREMENT_DESCRIPTION: Anticancer activity against human A549 cells by MTT assay
Type: functional, cell-based
pIC50: −log10 of the molar value.
# pIC50 per record follows
MEASUREMENT_KIND: pIC50

compound="O=C1NC(c2ccccc2)CN1S(=O)(=O)c1ccc2c(c1)CCCN2C(=O)C(F)(F)F (centres undefined)" assay_system=A549 value_modifier=< observed=4.70
compound="O=C(c1ccccc1)N1CCCc2cc(S(=O)(=O)N3CC(c4ccccc4)NC3=O)ccc21 (centres undefined)" assay_system=A549 value_modifier== observed=5.09
compound="COC(=O)N1CCCc2cc(S(=O)(=O)N3CC(c4ccccc4)NC3=O)ccc21 (centres undefined)" assay_system=A549 value_modifier== observed=5.94
compound="O=C(OCCCl)N1CCCc2cc(S(=O)(=O)N3CC(c4ccccc4)NC3=O)ccc21 (centres undefined)" assay_system=A549 value_modifier=< observed=4.70
compound="CCOC(=O)N1CCCc2cc(S(=O)(=O)N3CC(c4ccccc4)NC3=O)ccc21 (centres undefined)" assay_system=A549 value_modifier== observed=6.46
compound="COc1ccc(NC(=O)N2CCCc3cc(S(=O)(=O)N4CC(C)(c5ccccc5)NC4=O)ccc32)cc1 (centres undefined)" assay_system=A549 value_modifier== observed=5.28
compound="C=CCOC(=O)N1CCCc2cc(S(=O)(=O)N3CC(c4ccccc4)NC3=O)ccc21 (centres undefined)" assay_system=A549 value_modifier== observed=5.37
compound="CC(C)COC(=O)N1CCCc2cc(S(=O)(=O)N3CC(c4ccccc4)NC3=O)ccc21 (centres undefined)" assay_system=A549 value_modifier=< observed=4.70
compound="CSc1ccc(NC(=O)N2CCCc3cc(S(=O)(=O)N4CC(C)(c5ccccc5)NC4=O)ccc32)cc1 (centres undefined)" assay_system=A549 value_modifier=< observed=4.70
